For each entry below, report its IC50 value.
Experiment: In vitro binding affinity at Sigma opioid receptor type 1 on guinea pig brain membranes by [3H]pentazocine displacement.
Parameters: species or system Membrane

Fill in the blank: the reported IC50 of CCCCCC(Cc1ccc(OC)c(OCCc2ccccc2)c1)NCCC (stereo unspecified) is ____.
2.2 nM

Moving on to the next molecule: CCCC(Cc1ccc(OC)c(OCCc2ccccc2)c1)N(CCC)CCC (stereo unspecified)
8.2 nM

Input CCCCC(Cc1ccc(OC)c(OCCc2ccccc2)c1)NCCC (single isomer, unassigned; (-))
0.7 nM

Check CCCCCCC(Cc1ccc(OC)c(OCCc2ccccc2)c1)NCCC (stereo unspecified) too.
8.1 nM

Please do the same for CCCNC(CCC(C)C)Cc1ccc(OC)c(OCCc2ccccc2)c1 (stereo in doubt; 6i) as well.
1.6 nM

One more molecule: CCCNC(CC)Cc1ccc(OC)c(OCCc2ccccc2)c1 (stereo unspecified)
1.8 nM

Try this molecule next: CCCNC(CCC(C)C)Cc1ccc(OC)c(OCCc2ccccc2)c1 (stereo in doubt; 6i(+))
22 nM

Here is the next molecule: CCCNC(CCC(C)C)Cc1ccc(OC)c(OCCc2ccccc2)c1 (single isomer, unassigned; (-))
0.5 nM

Same again, this time with CCCNC(CCC)Cc1ccc(OC)c(OCCc2ccccc2)c1 (stereo unspecified)
4.1 nM
